Each record here notes measured log10 IC50.
System: HeLa cells
Experimental Protocol: [3H]Adenosine uptake functional cellular assay
Assay type: cell-based
Condition Notes: Homo sapiens, HeLa, accumulation of [3H]adenosine into HeLa cells; compound range 10 μM to […]; read-out: Adenosine uptake inhibition IC50
Test Readout: log10 IC50 (log10 of the value in nM)

{"Structure Smiles String": "Cn1nc(NC(=O)c2cc(OC3CC3)c(-c3nc([C@@H]4CC[C@H]5CCC(=O)N5C4)n4c(Cl)cnc(N)c34)cc2F)cc1C(F)(F)F", "log10 IC50": 3.36}
{"Structure Smiles String": "C[C@H]1OC(=O)N2C[C@H](c3nc(-c4ccc(C(=O)Nc5cc(C6CC6)ccn5)cc4)c4c(N)nccn34)CC[C@@H]12", "log10 IC50": 1.50}
{"Structure Smiles String": "COc1cc(C(=O)Nc2cc(C3CC3)ccn2)ccc1-c1nc([C@@H]2CC[C@H]3CCC(=O)N3C2)n2ccnc(N)c12", "log10 IC50": 2.73}
{"Structure Smiles String": "CC(C)c1nsc(NC(=O)c2ccc(-c3nc([C@@H]4CC[C@H]5CCC(=O)N5C4)n4ccnc(N)c34)cc2)n1", "log10 IC50": 3.37}
{"Structure Smiles String": "CCOc1cc(C(=O)Nc2cc(C(F)(F)F)ccn2)ccc1-c1nc([C@@H]2CC[C@H]3CCC(=O)N3C2)n2ccnc(N)c12", "log10 IC50": 3.16}
{"Structure Smiles String": "COc1cc(C(=O)Nc2cc(C(F)(F)F)ccn2)c(Cl)cc1-c1nc([C@@H]2CC[C@H]3CCC(=O)N3C2)n2c(Cl)cnc(N)c12", "log10 IC50": 3.69}
